FYI, the data here is from ChEMBL document CHEMBL1151273.

Tested on: HepG2
Assay: Cytotoxicity against human HepG2 cells after 48 hrs by acid phosphatase method
Type: functional, cell-based
Conditions: HepG2, 48 h
pIC50: −log10 of the molar value.
Examples of molecules with documented pIC50 follow.

Solved entries:
C[C@H](CC[C@@]1(O)O[C@H]2C[C@H]3[C@@H]4CC[C@H]5C[C@@H](O[C@@H]6O[C@H](CO)[C@H](O[C@@H]7O[C@H](CO)[C@@H](O)[C@H](O[C@@H]8OC[C@@H](O)[C@H](O)[C@H]8O)[C@H]7O[C@@H]7O[C@H](CO)[C@H](O)[C@H](O)[C@H]7O)[C@H](O)[C@H]6O)[C@H](O)C[C@]5(C)[C@H]4CC[C@]3(C)[C@H]2[C@@H]1C)CO[C@@H]1O[C@H](CO)[C@@H](O)[C@H](O)[C@H]1O [PARVISPINOSIDE A] : < 4.00
C[C@H](CC[C@@]1(O)O[C@H]2C[C@H]3[C@@H]4CC[C@H]5C[C@@H](O[C@@H]6O[C@H](CO)[C@H](O[C@@H]7O[C@H](CO)[C@@H](O)[C@H](O[C@@H]8OC[C@@H](O)[C@H](O)[C@H]8O)[C@H]7O[C@@H]7O[C@H](CO)[C@H](O)[C@H](O)[C@H]7O)[C@H](O)[C@H]6O)CC[C@]5(C)[C@H]4CC[C@]3(C)[C@H]2[C@@H]1C)CO[C@@H]1O[C@H](CO)[C@@H](O)[C@H](O)[C@H]1O [PARVISPINOSIDE B] : < 4.00

// query Consider the molecule CC1=CC(=O)CC(C)(C)[C@@]1(O)/C=C/C(O)CO[C@@H]1O[C@H](CO)[C@@H](O)[C@H](O)[C@H]1O (stereo partly drawn) [PARVISPINOSIDE C] and give its measured pIC50.
// result < 4.00
